Test system: LXRa homodimer (NR concentration 270 nM)
Test: PBM binding z-score (relative to random genomic background probes); higher = stronger binding; sequences stand for … in GC…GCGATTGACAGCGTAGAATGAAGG
ENDPOINT_NAME: PBM binding z-score
# print the numeric value only

TAGCCTAGGTCATTCAGGGGCGAGTATAGAAAGC :: 0.875
GCTAGTTGGTCAGTAAAAGGTCACCCACCGGTCG :: 4.23
GTATATAGGTAATACAAGGTGAAAGTCCGATTGT :: 0.975

Item: "GCGACTTGGGCAAAGCAGGTTACCATAAGGTTGG" | System: LXRa homodimer (NR concentration 270 nM) | PBM binding z-score: -0.467

Item: "GCATATAGGTAATACACGGTGAAAGTCCGATTGT" | System: LXRa homodimer (NR concentration 270 nM) | PBM binding z-score: 0.163

* * *

Test system: PPARg:RXRa 270nM:90nM, anti-RXR (NR concentration 270 nM, RXRa partner concentration 90 nM)
Assay: PBM binding z-score (relative to random genomic background probes); higher = stronger binding; sequences stand for … in GC…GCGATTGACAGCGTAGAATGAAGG
// reported PBM binding z-score per item
# print the numeric value only

Some solved entries appear below for comparison.
GATACAGGGTCAGCTAGACGCCAGAGTATGGAAA :: 3.1
TTACCAAGGTGAGCTGAGGACGTTGATCCAACTC :: -0.267
CCTCGGAGGACAACAGGAGGTCAGAGGTGCCAGA :: 1.57
CGTCAAAGTTCAAGGAAACGTAACAGAAAGCAGC :: 4.4
CCTATTAGTTGTCCATAAGGGCAACCGAAGCTCG :: 0.706
ATCTCTAGGTAAGACTCAGTTCAGGGAAGAACGC :: 0.397
CGTCCAAGGTCATAGGAGATCAGTGAAGACAGAT :: 4.9
AGAATGAGGTTATCCGTAGATCAGGGAAGAAAGT :: 2.05
TAGAGTAGGTTACCAATGGGGCATTCAGCTTTCT :: 1.96
CGTCCAGGGTCAGCAGGTCAGTGAAAGCGACGTG :: 4.41

// recorded PBM binding z-score for "CTCGAAAGGTCGGTTGAGGTGAGCATACGGATAA" : 1.33

// recorded PBM binding z-score for "TAGCTTAGGTCAGATCGGGCCAGTATACGCTATA" : 0.891

// recorded PBM binding z-score for "ATATGTAGGTTAGCTGGGGGCATTCAGACTAGGC" : 4.61

// recorded PBM binding z-score for "TCGAGTAGGTCAGTCGGGGCATTCAGCCAACATA" : 2.87

// recorded PBM binding z-score for "CGTACTGGGCCACGAAAGGTCATTGATTCAGTGA" : 4.93

// recorded PBM binding z-score for "CAAACTAGGTCAAAGGGCAAAGTCGAGCCAACCA" : 10.6

// recorded PBM binding z-score for "TCTTGTAGATCACCAGGTTAAGAAAGCTGGCCAA" : 2.21

// recorded PBM binding z-score for "TCATATAGGCAATACAGGTGAAAGTCGGCATCTA" : 1.91

* * *

// reported PBM binding z-score per item
Test system: PPARg:RXRa IVT, anti-PPARg (NR concentration 270 nM, RXRa partner concentration 90 nM)
Assay: PBM binding z-score (relative to random genomic background probes); higher = stronger binding; sequences stand for … in GC…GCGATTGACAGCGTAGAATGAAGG
# print the numeric value only

Some solved entries appear below for comparison.
GCTAGTTGGTCATTAAAAGGTCACACACCGGTCG :: 2.97
TCTATTAGTTGCTTAGGGCAACCGAAACAGCGGA :: 0.552
TTACCCAGGTGAAGGTCGTTGATCCCTCTGTAGA :: 2.58
TCTGCTAGGTCAGTTGGTCAGCTAACGAGCTGCC :: 3.08

Now for another entry.
// recorded PBM binding z-score for "CAAACTAGGTCACCGGAAGGTCACAGTCCGCATG" : 9.08

Recorded values, source the supplement of paper PMC6555819.
